target: ATP-binding cassette sub-family C member 3 (Homo sapiens); experiment: Inhibition of MRP3-mediated drug resistance in doxorubicin-resistant human HT-29 cells assessed as increase in extracellular LDH level at 5 uM after 24 hrs by spectrofluorometric analysis; type: cell-based; conditions: ht-29, 24 h
Sequence (O15438 whole entry): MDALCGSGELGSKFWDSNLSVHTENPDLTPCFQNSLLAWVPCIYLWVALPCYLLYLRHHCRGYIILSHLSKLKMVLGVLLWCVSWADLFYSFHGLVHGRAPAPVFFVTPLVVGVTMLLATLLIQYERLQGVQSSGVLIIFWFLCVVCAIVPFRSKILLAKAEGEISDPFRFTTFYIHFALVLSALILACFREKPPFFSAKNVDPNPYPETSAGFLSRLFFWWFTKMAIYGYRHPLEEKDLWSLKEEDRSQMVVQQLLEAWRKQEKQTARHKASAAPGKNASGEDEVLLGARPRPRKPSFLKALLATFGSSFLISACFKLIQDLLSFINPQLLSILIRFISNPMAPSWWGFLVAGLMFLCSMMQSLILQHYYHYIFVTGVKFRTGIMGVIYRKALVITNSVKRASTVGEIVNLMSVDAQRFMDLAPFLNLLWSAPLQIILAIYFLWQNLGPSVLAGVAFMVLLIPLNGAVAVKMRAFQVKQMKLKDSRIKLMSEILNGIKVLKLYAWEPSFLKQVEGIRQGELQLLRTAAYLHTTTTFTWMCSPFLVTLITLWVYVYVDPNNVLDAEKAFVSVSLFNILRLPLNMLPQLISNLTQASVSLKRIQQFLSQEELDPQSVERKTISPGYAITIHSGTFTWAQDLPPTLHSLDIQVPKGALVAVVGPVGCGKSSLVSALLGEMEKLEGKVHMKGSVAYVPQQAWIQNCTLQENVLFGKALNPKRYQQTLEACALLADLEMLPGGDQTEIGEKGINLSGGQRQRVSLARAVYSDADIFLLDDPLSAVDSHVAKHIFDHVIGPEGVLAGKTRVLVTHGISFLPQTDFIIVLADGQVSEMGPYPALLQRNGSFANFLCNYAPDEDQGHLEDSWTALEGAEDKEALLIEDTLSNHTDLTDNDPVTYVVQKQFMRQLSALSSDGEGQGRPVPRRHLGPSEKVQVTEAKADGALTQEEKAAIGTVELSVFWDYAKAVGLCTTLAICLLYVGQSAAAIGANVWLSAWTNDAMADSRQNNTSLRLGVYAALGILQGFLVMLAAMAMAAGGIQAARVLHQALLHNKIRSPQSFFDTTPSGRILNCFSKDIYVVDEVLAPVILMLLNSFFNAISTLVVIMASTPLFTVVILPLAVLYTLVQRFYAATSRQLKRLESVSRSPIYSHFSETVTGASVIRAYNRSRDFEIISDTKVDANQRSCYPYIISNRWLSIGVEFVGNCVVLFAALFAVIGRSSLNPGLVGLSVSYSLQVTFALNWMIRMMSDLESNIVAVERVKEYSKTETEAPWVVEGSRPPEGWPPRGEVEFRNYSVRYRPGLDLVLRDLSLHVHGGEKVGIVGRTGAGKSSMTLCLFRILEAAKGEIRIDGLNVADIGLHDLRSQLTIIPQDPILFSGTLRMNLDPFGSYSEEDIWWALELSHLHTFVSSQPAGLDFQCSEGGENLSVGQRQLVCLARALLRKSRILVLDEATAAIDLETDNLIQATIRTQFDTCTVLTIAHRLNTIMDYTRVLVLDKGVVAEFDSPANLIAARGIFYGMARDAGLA
Measured endpoint: inhibition (INH)

Example cases with answers are listed next.
- Compound: "O=C(O)c1ccc(CC(CO[N+](=O)[O-])O[N+](=O)[O-])cc1 (stereo unspecified)"
  Reading: "Not Active"
- Compound: "COC(=O)CCOc1no[n+]([O-])c1S(=O)(=O)c1ccccc1"
  Reading: "Not Active"
- Compound: "COc1cccc2c1C(=O)c1c(O)c3c(c(O)c1C2=O)C[C@@](O)(C(=O)COC(=O)c1ccc(CC(CO[N+](=O)[O-])O[N+](=O)[O-])cc1)C[C@@H]3O[C@H]1C[C@H](N)[C@H](O)[C@H](C)O1.Cl (stereo partly specified)"
  Reading: "Active"
- Compound: "COC(=O)c1ccc(CC(CO[N+](=O)[O-])O[N+](=O)[O-])cc1 (stereo unspecified)"
  Reading: "Not Active"
- Compound: "O=C(O)CCOc1no[n+]([O-])c1S(=O)(=O)c1ccccc1"
  Reading: "Not Active"

Now for the compound whose inhibition (INH) we want.
Q. If you can, please state the reported inhibition (INH) value of COc1cccc2c1C(=O)c1c(O)c3c(c(O)c1C2=O)C[C@@](O)(C(=O)COC(=O)CCOc1no[n+]([O-])c1S(=O)(=O)c1ccccc1)C[C@@H]3O[C@H]1C[C@H](N)[C@H](O)[C@H](C)O1.Cl .
A. Active
